From: ChEMBL document CHEMBL1240484

assay: Cytotoxicity against human HeLa cells after 3 days by XTT assay; assay type: cell-based; conditions: read-out: TC50
Give CC50 at 72 h for every item shown.
Numbers only, in µM.

Some solved cases for reference:
[[record]]
structure_notation = "Clc1ccc(/C=C/C2=Cc3ccccc3OC2)cc1"
measurement_label = "CC50 at 72 h"
recorded_measurement = 100

[[record]]
structure_notation = "O=c1c(/C=C/C=C/c2ccc(Cl)cc2)coc2ccc(Cl)cc12"
measurement_label = "CC50 at 72 h"
recorded_measurement = 6.25

[[record]]
structure_notation = "C1=C(/C=C/c2ccccc2)COc2ccccc21"
measurement_label = "CC50 at 72 h"
recorded_measurement = 50

[[record]]
structure_notation = "O=c1c(/C=C/C=C/c2ccccc2)coc2ccc(Cl)cc12"
measurement_label = "CC50 at 72 h"
recorded_measurement = 100

[[record]]
structure_notation = "Clc1ccc(/C=C/C=C/C2=Cc3cc(Cl)ccc3OC2)cc1"
measurement_label = "CC50 at 72 h"
recorded_measurement = 12.5

[[record]]
structure_notation = "O=c1c(/C=C/c2ccccc2)coc2ccc(Cl)cc12"
measurement_label = "CC50 at 72 h"
recorded_measurement = 50

[[record]]
structure_notation = "Clc1ccc2c(c1)C=C(/C=C/c1ccccc1)CO2"
measurement_label = "CC50 at 72 h"
recorded_measurement = 100

[[record]]
structure_notation = "Clc1ccc(/C=C/C=C/C2=Cc3ccccc3OC2)cc1"
measurement_label = "CC50 at 72 h"
recorded_measurement = 6.25


The reported value for "O=c1c(/C=C/c2ccc(Cl)cc2)coc2ccccc12" in terms of CC50 at 72 h is 50
